assayNotes: Photostability of O/W emulsions under solar simulator
Format: physicochemical
measurementConditions: residual UVAPF after solar irradiation; O/W emulsion on PMMA
measurementKind: %UVAPfeff. (%)
State the answer as a number, implicitly in %.

Exam item: %UVAPfeff. for Oc1ccc(/C=C/c2nc3ccccc3s2)cc1 [BZTst2] ?
Marked response: 95.96

Exam item: Another: COc1ccc(/C=C/c2nc3ccccc3s2)cc1O [BZTst5]
Marked response: 106.30

Exam item: Follow-up item: O=S(=O)(O)c1ccc2[nH]c(-c3ccccc3)nc2c1 [PBSA, reference compound]
Marked response: 100.00

Exam item: Likewise for COc1ccc(/C=C/c2nc3ccccc3s2)cc1 [BZTst3, (E)-2-(4-methoxystyryl)benzo[d]thiazole] ?
Marked response: 152.12

Exam item: Follow-up item: COc1cc(/C=C/c2nc3ccccc3s2)ccc1O [BZTst6]
Marked response: 80.75

Exam item: And then C(=C\c1nc2ccccc2s1)/c1ccccc1 [BZTst1, (E)-2-styrylbenzo[d]thiazole] , what is it?
Marked response: 54.38

Exam item: Next record, please: Oc1ccc(/C=C/c2nc3ccccc3s2)cc1O [BZTst4]
Marked response: 101.57

* * *

assayNotes: In vitro filtering parameters of O/W sunscreen formulation on PMMA plates
measurementConditions: 3% in O/W sunscreen formulation
Provide the recorded UVA/UVB for the entries that follow.
Enter a number only.

Exam item: Which UVA/UVB reading was recorded for the molecule Oc1ccc(/C=C/c2nc3ccccc3s2)cc1O [BZTst4] ?
Marked response: 1.47

Exam item: Next molecule: COc1ccc(/C=C/c2nc3ccccc3s2)cc1O [BZTst5]
Marked response: 0.93

Exam item: Entry to check: Oc1ccc(/C=C/c2nc3ccccc3s2)cc1 [BZTst2]
Marked response: 1.46

* * *

assayNotes: In vitro filtering parameters of O/W sunscreen formulation on PMMA plates
measurementConditions: 3% in O/W sunscreen formulation
Procedure: Synthesized compounds were incorporated at 3% concentration in a suitable oil-in-water (O/W) emulsion for cosmetic use as sunscreen. […] A protocol previously reported by us was adopted. […] The plates were placed in the dark for 15–30 min to allow the formation of a sun-stabilised standard layer and then inserted into the instrument and measured at five different points on each plate (UV transmittance range 290–400 nm). […]
measurementKind: ʎc (critical wavelength) (nm)
A number alone suffices; assume nm.

Exam item: Any idea what its ʎc (critical wavelength) is? The molecule is Oc1ccc(/C=C/c2nc3ccccc3s2)cc1O
Marked response: 389

Exam item: Now the molecule COc1ccc(/C=C/c2nc3ccccc3s2)cc1 [BZTst3, (E)-2-(4-methoxystyryl)benzo[d]thiazole]
Marked response: 378

Exam item: Moving on to COc1cc(/C=C/c2nc3ccccc3s2)ccc1O
Marked response: 388

Exam item: Another molecule: C(=C\c1nc2ccccc2s1)/c1ccccc1 [BZTst1, (E)-2-styrylbenzo[d]thiazole]
Marked response: 364

Exam item: // repeat for O=S(=O)(O)c1ccc2[nH]c(-c3ccccc3)nc2c1 [PBSA, reference compound] and report
Marked response: 357

Exam item: Now this one: COc1ccc(/C=C/c2nc3ccccc3s2)cc1O
Marked response: 384

Exam item: Query Oc1ccc(/C=C/c2nc3ccccc3s2)cc1 next
Marked response: 384

* * *

Field: UVA/UVB. Provide a value for each of the molecules that follow.
assayNotes: In vitro filtering parameters of O/W sunscreen formulation on PMMA plates
measurementConditions: 3% in O/W sunscreen formulation

Exam item: What value of UVA/UVB has been reported for the following molecule? C(=C\c1nc2ccccc2s1)/c1ccccc1 [BZTst1, (E)-2-styrylbenzo[d]thiazole]
Marked response: 0.96

Exam item: Now consider O=S(=O)(O)c1ccc2[nH]c(-c3ccccc3)nc2c1 [PBSA, reference compound] .
Marked response: 0.67

Exam item: // query: COc1ccc(/C=C/c2nc3ccccc3s2)cc1 [BZTst3, (E)-2-(4-methoxystyryl)benzo[d]thiazole]
Marked response: 1.59

Exam item: Further, for COc1cc(/C=C/c2nc3ccccc3s2)ccc1O ?
Marked response: 1.96

FYI, the data here is from paper PMC11504387.
